Values were extracted from ChEMBL document CHEMBL1133562.

# Tested target: UniProtKB Q92731
# Sequence (Q92731 whole entry): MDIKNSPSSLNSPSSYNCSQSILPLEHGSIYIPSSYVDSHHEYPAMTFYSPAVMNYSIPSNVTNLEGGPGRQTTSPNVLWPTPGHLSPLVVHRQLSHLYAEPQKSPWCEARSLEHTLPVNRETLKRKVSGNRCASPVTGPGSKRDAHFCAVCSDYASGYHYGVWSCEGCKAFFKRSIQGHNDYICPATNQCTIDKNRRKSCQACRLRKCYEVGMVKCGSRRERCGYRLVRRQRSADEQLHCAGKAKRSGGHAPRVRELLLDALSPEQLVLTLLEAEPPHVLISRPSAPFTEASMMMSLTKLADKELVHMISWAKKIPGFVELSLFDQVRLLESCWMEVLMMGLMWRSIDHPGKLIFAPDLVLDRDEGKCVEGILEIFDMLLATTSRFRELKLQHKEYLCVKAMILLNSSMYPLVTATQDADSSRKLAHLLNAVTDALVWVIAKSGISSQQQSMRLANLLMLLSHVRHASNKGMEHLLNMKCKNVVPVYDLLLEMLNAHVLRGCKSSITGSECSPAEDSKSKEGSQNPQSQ
# Assay details: Relative binding affinity was determined for Estrogen receptor 2 using 10 nM [3H]E2 as tracer (estradiol 100%)
Measurement kind: RBA
Answers are plain numbers.

Known results for compounds:
- Smiles: "CC(C)Cc1c(-c2ccc(O)cc2)nn(-c2ccccc2)c1-c1ccc(O)cc1"
  RBA: 1.4
- Smiles: "CCc1c(-c2ccccc2)nn(-c2ccc(O)cc2)c1-c1ccc(O)cc1"
  RBA: 0.8
- Smiles: "CC(C)Cc1c(-c2ccc(O)cc2)nn(-c2ccc(O)cc2)c1-c1ccc(O)cc1"
  RBA: 0.89
- Smiles: "CCc1c(-c2ccc(O)cc2)nn(-c2ccc(O)cc2)c1-c1ccccc1"
  RBA: 0.32
- Smiles: "CCc1c(-c2ccc(O)cc2)nn(-c2ccc(O)cc2)c1-c1ccc(O)cc1"
  RBA: 0.15
- Smiles: "CC(C)c1c(-c2ccc(O)cc2)nn(-c2ccccc2)c1-c1ccc(O)cc1"
  RBA: 0.86
- Smiles: "Cc1c(-c2ccc(O)cc2)nn(-c2ccccc2)c1-c1ccc(O)cc1"
  RBA: 0.28
- Smiles: "CCCCc1c(-c2ccc(O)cc2)nn(-c2ccc(O)cc2)c1-c1ccc(O)cc1"
  RBA: 0.18

For each of the items listed, what is its RBA?
1. CCCCc1c(-c2ccc(O)cc2)nn(-c2ccccc2)c1-c1ccc(O)cc1
2. CCc1c(-c2ccc(O)cc2)nn(-c2ccccc2)c1-c1ccccc1
3. CCc1c(-c2ccccc2)nn(-c2ccc(O)cc2)c1-c1ccccc1
4. CCc1c(-c2ccccc2)nn(-c2ccccc2)c1-c1ccc(O)cc1
5. CCc1c(-c2ccc(O)cc2)nn(-c2ccccc2)c1-c1ccc(O)cc1

1. 0.47
2. 0.61
3. 1.5
4. 0.06
5. 1.1

Please look up its RBA: CCCc1c(-c2ccc(O)cc2)nn(-c2ccccc2)c1-c1ccc(O)cc1
0.52
